Here, each record is paired with measured Population Healthy Nuclei (%) data.
System: U2OS
Assay: Multiplex assay against U2OS
Assay type: toxicity, cell-based
Conditions: human, 48 h, 10 µM, compound concentration 10 uM, replicate 1
# output: number + unit

{"compound": "C[C@]12CC[C@@H]3c4ccc(O)cc4CC[C@H]3[C@@H]1CC[C@@H]2O", "system": "U2OS", "Population Healthy Nuclei (%)": "81%"}
{"compound": "COc1ccccc1CN[C@H]1C2CCN(CC2)[C@H]1C(c1ccccc1)c1ccccc1", "system": "U2OS", "Population Healthy Nuclei (%)": "58%"}
{"compound": "CC(C)(C)NC[C@H](O)COc1nsnc1N1CCOCC1", "system": "U2OS", "Population Healthy Nuclei (%)": "93%"}
{"compound": "Cl.O=C(O)c1cc(-c2ccc(C3CCNCC3)cc2)c2ccc(-c3ccc(C(F)(F)F)cc3)cc2c1", "system": "U2OS", "Population Healthy Nuclei (%)": "65%"}
{"compound": "CC(C)c1noc(N2CCC(COc3ccc(-c4ccc(S(C)(=O)=O)cc4)nc3)CC2)n1", "system": "U2OS", "Population Healthy Nuclei (%)": "76%"}
{"compound": "COc1cc2ncn(-c3cc(OCc4ccccc4C(F)(F)F)c(C(N)=O)s3)c2cc1OC [GW843682X]", "system": "U2OS", "Population Healthy Nuclei (%)": "53%"}

Which Population Healthy Nuclei (%) is listed for CCc1nn(CCCN2CCN(c3cccc(Cl)c3)CC2)c(=O)n1CCOc1ccccc1.Cl [NEFAZODONE HYDROCHLORIDE] ?
41%

Can you handle Cc1ccccc1C(c1ccccc1C)N1C2CCC1CC(O)(c1ccccc1)C2 (stereo not given) next?
71%

Can you handle CC(C)Oc1ccccc1C(=O)Nc1ccccc1C(=O)Nc1cccc(S(=O)(=O)C(F)(F)F)c1 next?
19%

Can you handle CC1=C(C(=O)Nc2cc3cn[nH]c3cc2F)C(c2ccc(C(F)(F)F)cc2)CC(=O)N1 (stereo not given) next?
77%

----------
Here, each record is paired with measured Population Normal (%) data.
Tested on: Fibroblast
Test: Multiplex assay against human fibroblast
Format: toxicity, cell-based
Conditions: 24 h, 1 µM, compound concentration 1 uM, replicate 2
# output: number + unit

{"compound": "Cc1nc(N2CC[C@H](O)C2)ncc1-c1cc(C(F)(F)F)cc2[nH]ncc12", "system": "Fibroblast", "experimental result": "64%"}
{"compound": "CN1CCN(Cc2ccc(Nc3ncc(Cl)c(Nc4ccccc4S(=O)(=O)N(C)C)n3)cc2)CC1 [DUBERMATINIB]", "system": "Fibroblast", "experimental result": "93%"}
{"compound": "CC(C)Oc1ccccc1C(=O)Nc1ccccc1C(=O)Nc1cccc(S(=O)(=O)C(F)(F)F)c1", "system": "Fibroblast", "experimental result": "92%"}
{"compound": "C=CC(=O)Nc1ccc2[nH]c(=O)n(C3CCN(Cc4ccc(-c5nc6cc[nH]c(=O)c6cc5-c5ccccc5)cc4)CC3)c2c1 [Borussertib]", "system": "Fibroblast", "experimental result": "67%"}
{"compound": "COc1cc2ncn(-c3cc(OCc4ccccc4C(F)(F)F)c(C(N)=O)s3)c2cc1OC [GW843682X]", "system": "Fibroblast", "experimental result": "94%"}
{"compound": "Cc1ccccc1C(c1ccccc1C)N1C2CCC1CC(O)(c1ccccc1)C2 (configuration not stated)", "system": "Fibroblast", "experimental result": "95%"}
{"compound": "Cc1c[nH]c2nccc(Oc3c(F)cc(Nc4cc(Cl)nc(N)n4)cc3F)c12 [BAY-549]", "system": "Fibroblast", "experimental result": "96%"}
{"compound": "O=C(c1cc2c(cc1F)OC(c1ccc(F)cc1)(c1ccc(Cl)cc1Cl)O2)N1CCOCC1 (configuration not stated)", "system": "Fibroblast", "experimental result": "89%"}
{"compound": "CCCSc1nc(N[C@@H]2C[C@H]2c2ccc(F)c(F)c2)c2nnn([C@@H]3C[C@H](OCCO)[C@@H](O)[C@H]3O)c2n1 [TICAGRELOR]", "system": "Fibroblast", "experimental result": "97%"}
{"compound": "COC(=O)C1=C(C)NC(C)=C(C(=O)OCCCN2CCC(c3ccccc3)(c3ccccc3)CC2)[C@H]1c1cccc([N+](=O)[O-])c1 [NIGULDIPINE]", "system": "Fibroblast", "experimental result": "94%"}

Which Population Normal (%) is listed for Cl.O=C(O)c1cc(-c2ccc(C3CCNCC3)cc2)c2ccc(-c3ccc(C(F)(F)F)cc3)cc2c1 ?
96%

Can you handle C[C@]12CC[C@@H]3c4ccc(O)cc4CC[C@H]3[C@@H]1CC[C@@H]2O [ESTRADIOL] next?
96%

Can you handle CC(C)c1noc(N2CCC(COc3ccc(-c4ccc(S(C)(=O)=O)cc4)nc3)CC2)n1 [GSK-1292263] next?
97%

Can you handle O=c1cc(N2CCOCC2)oc2c(-c3cccc4c3sc3ccccc34)cccc12 next?
93%

Can you handle COc1ccc(-c2ccc3ncc4c(c3c2)n(-c2ccc(N3CCNCC3)c(C(F)(F)F)c2)c(=O)n4C)cn1.O=C(O)/C=C\C(=O)O [BGT-226] next?
69%

Can you handle CC1=C(C(=O)Nc2cc3cn[nH]c3cc2F)C(c2ccc(C(F)(F)F)cc2)CC(=O)N1 (configuration not stated) next?
95%

Can you handle CC(C)(C)NC[C@H](O)COc1nsnc1N1CCOCC1 [TIMOLOL] next?
94%

----------
Test system: HEK-293T
Test: Multiplex assay against HEK293T
Assay type: toxicity, cell-based
Conditions: human, 48 h, 1 µM, compound concentration 1 uM, replicate 2
Binary label based on Population Mitotic Cells (%) with cut-off 80%: below gives 1, not below gives 0.

Quick check: Population Mitotic Cells (%) of CC(C)(C)NC[C@H](O)COc1nsnc1N1CCOCC1 under 80%?
0

Can you handle COC(=O)C1=C(C)NC(C)=C(C(=O)OCCCN2CCC(c3ccccc3)(c3ccccc3)CC2)[C@H]1c1cccc([N+](=O)[O-])c1 next?
1

----------
Tested on: U2OS
Experiment: Multiplex assay against U2OS
Format: toxicity, cell-based
Conditions: human, 12 h, 1 µM, compound concentration 1 uM, replicate 1
Here, each record is paired with measured Population Hoechst High Intensity Objects (%) data.
Give your result in % as a bare value.

{"item smiles": "C=CC(=O)Nc1cccc(Oc2nc(Nc3ccc(N4CCN(C)CC4)cc3OC)ncc2Cl)c1", "value unit": "%", "experimental result": 8}
{"item smiles": "CCOC(=O)Nc1cc(-c2ccc(C)c(NS(C)(=O)=O)c2)nn2c(C)nnc12", "value unit": "%", "experimental result": 2}
{"item smiles": "Cl.O=C(O)c1cc(-c2ccc(C3CCNCC3)cc2)c2ccc(-c3ccc(C(F)(F)F)cc3)cc2c1", "value unit": "%", "experimental result": 7}

Please turn your attention to the following entry.
Which Population Hoechst High Intensity Objects (%) is listed for CNC(=O)Nc1ccc2c(c1)[C@@]1(CC2)OC(=O)N(CC(=O)N(Cc2ccc(F)cc2)[C@@H](C)C(F)(F)F)C1=O ?
4

----------
Test system: Fibroblast
Assay: Multiplex assay against human fibroblast
Assay type: toxicity, cell-based
Conditions: 24 h, 10 µM, compound concentration 10 uM, replicate 2
Entry flag: satisfied if Population Hoechst High Intensity Objects (%) reaches 9%; not satisfied if it does not.

{"compound": "CC(C)OC(=O)N1CCC(Oc2ncnc3c2cnn3-c2ccc(S(C)(=O)=O)cc2F)CC1", "class": "not satisfied"}
{"compound": "COC(=O)C1=C(C)NC(C)=C(C(=O)OCCCN2CCC(c3ccccc3)(c3ccccc3)CC2)[C@H]1c1cccc([N+](=O)[O-])c1", "class": "satisfied"}

Entry Cc1c[nH]c2nccc(Oc3c(F)cc(Nc4cc(Cl)nc(N)n4)cc3F)c12 : is its Population Hoechst High Intensity Objects (%) no less than 9%?
not satisfied

Can you handle O=C(c1cc2c(cc1F)OC(c1ccc(F)cc1)(c1ccc(Cl)cc1Cl)O2)N1CCOCC1 (stereo not drawn) next?
not satisfied

Can you handle C=CC(=O)Nc1cccc(Oc2nc(Nc3ccc(N4CCN(C)CC4)cc3OC)ncc2Cl)c1 next?
satisfied

Can you handle C[C@]12CC[C@@H]3c4ccc(O)cc4CC[C@H]3[C@@H]1CC[C@@H]2O next?
not satisfied

Can you handle CNCc1ccccc1-c1csc([C@@H](C)Nc2nc(C)nc3cc(OC)c(OC)cc23)c1 next?
satisfied

----------
System: Fibroblast
Assay: Multiplex assay against human fibroblast
Type: toxicity, cell-based
Details: 48 h, 1 µM, compound concentration 1 uM, replicate 2
assay readout: Population Fragmented Nuclei (%)
Give your result in % as a bare value.

Example compounds with recorded Population Fragmented Nuclei (%):
{"compound": "Cl.O=C(O)c1cc(-c2ccc(C3CCNCC3)cc2)c2ccc(-c3ccc(C(F)(F)F)cc3)cc2c1", "system": "Fibroblast", "experimental result": 16}
{"compound": "CC(C)OC(=O)N1CCC(Oc2ncnc3c2cnn3-c2ccc(S(C)(=O)=O)cc2F)CC1", "system": "Fibroblast", "experimental result": 25}
{"compound": "O=c1cc(N2CCOCC2)oc2c(-c3cccc4c3sc3ccccc34)cccc12", "system": "Fibroblast", "experimental result": 18}
{"compound": "CC(C)(C)NC[C@H](O)COc1nsnc1N1CCOCC1 [TIMOLOL]", "system": "Fibroblast", "experimental result": 12}

Which Population Fragmented Nuclei (%) is listed for COc1ccccc1CN[C@H]1C2CCN(CC2)[C@H]1C(c1ccccc1)c1ccccc1 [CP-96345] ?
36

Can you handle CCc1ccc(OCc2ccccc2C(=O)Nc2ccc3nc(C)cc(N)c3c2)cc1.Cl next?
51

Can you handle CC(C)Oc1ccccc1C(=O)Nc1ccccc1C(=O)Nc1cccc(S(=O)(=O)C(F)(F)F)c1 next?
29

Can you handle C[C@]12CC[C@@H]3c4ccc(O)cc4CC[C@H]3[C@@H]1CC[C@@H]2O [ESTRADIOL] next?
24

Can you handle CC(C)NC(=O)N1CC[C@H](NC2=Nc3cc(F)ccc3N(CC(F)F)c3ccc(Cl)cc32)C1 next?
37

Can you handle Cc1cccc(CN2CCN(C(c3ccccc3)c3ccc(Cl)cc3)CC2)c1.Cl.Cl (centres undefined) next?
24

Can you handle COc1ccc(-c2ccc3ncc4c(c3c2)n(-c2ccc(N3CCNCC3)c(C(F)(F)F)c2)c(=O)n4C)cn1.O=C(O)/C=C\C(=O)O [BGT-226] next?
28

Can you handle COC(=O)C1=C(C)NC(C)=C(C(=O)OCCCN2CCC(c3ccccc3)(c3ccccc3)CC2)[C@H]1c1cccc([N+](=O)[O-])c1 [NIGULDIPINE] next?
61

Can you handle CC(C)c1noc(N2CCC(COc3ccc(-c4ccc(S(C)(=O)=O)cc4)nc3)CC2)n1 [GSK-1292263] next?
26

Can you handle CC1=C(C(=O)Nc2cc3cn[nH]c3cc2F)C(c2ccc(C(F)(F)F)cc2)CC(=O)N1 (centres undefined) next?
31

Can you handle Cc1ccccc1C(c1ccccc1C)N1C2CCC1CC(O)(c1ccccc1)C2 (centres undefined) next?
60

Can you handle Cc1c[nH]c2nccc(Oc3c(F)cc(Nc4cc(Cl)nc(N)n4)cc3F)c12 [BAY-549] next?
26

Can you handle Cc1ccc(C)c(Oc2ccncc2C(=O)N2CCN(C3CC3)c3ccccc32)c1 next?
24

Can you handle CCCSc1nc(N[C@@H]2C[C@H]2c2ccc(F)c(F)c2)c2nnn([C@@H]3C[C@H](OCCO)[C@@H](O)[C@H]3O)c2n1 [TICAGRELOR] next?
27

Can you handle O=C(c1cc2c(cc1F)OC(c1ccc(F)cc1)(c1ccc(Cl)cc1Cl)O2)N1CCOCC1 (centres undefined) next?
18

Can you handle CNC(=O)Nc1ccc(-c2nc(N3CC4CCC(C3)O4)c3cnn(C4CCC5(CC4)OCCO5)c3n2)cc1 next?
33

Can you handle COc1cc2ncn(-c3cc(OCc4ccccc4C(F)(F)F)c(C(N)=O)s3)c2cc1OC [GW843682X] next?
22

Can you handle CN1CCN(Cc2ccc(Nc3ncc(Cl)c(Nc4ccccc4S(=O)(=O)N(C)C)n3)cc2)CC1 [DUBERMATINIB] next?
30

Can you handle COc1cc(Nc2nccc(-c3cnn4nc(OC)ccc34)n2)cc(C(F)(F)F)c1 next?
39

Can you handle Cc1ccc2c(c1)c1c(n2CCc2ccc(C)nc2)CCN(C)C1 [LATREPIRDINE] next?
53
